# system_under_test: GABA-A receptor; alpha-1/beta-2/gamma-2 (Homo sapiens) (UniProt P14867+P47870+P18507)
# procedure_text: Modulation of recombinant wild type GABAA receptor alpha1beta2gamma2S (unknown origin) expressed in Xenopus laevis oocytes assessed as increase in GABA-evoked chloride current at 10 uM at -70 mV holding potential by two-microelectrode voltage clamp assay relative to control
# Assay type: cell-based
measured_parameter: Activity (%)
Number only, in %; omit the unit.

Q: Specify measured Activity for `COC(=O)[C@]1(C)CCC[C@]2(C)c3cc(OC(C)=O)c(C(C)C)cc3C(=O)C[C@@H]12` .
Ans: -1

Q: In one line, give reported Activity of the entry `COC(=O)[C@]1(C)CCC[C@]2(C)c3cc(C(C)=O)c(C(C)C)cc3CC[C@@H]12` .
Ans: 2.7

Q: Give reported Activity value for `COC(=O)[C@]1(C)CCC[C@]2(C)c3cc(O)c(C(C)C)cc3CC[C@@H]12`
Ans: 23.7

Q: Quickly give me recorded Activity for `COC(=O)[C@]1(C)CCC[C@]2(C)c3cc(OC(C)=O)c(C(C)C)cc3CC[C@@H]12`
Ans: 5.1

Q: Note down Activity recorded for `CC(C)c1cc2c(cc1O)[C@@]1(C)CCC[C@@](C)(CO)[C@@H]1CC2=O`
Ans: 4.5

Q: Give Activity for `CC(C)c1cc2c(cc1O)[C@@]1(C)CCC[C@@](C)(C(=O)O)[C@@H]1CC2`
Ans: 8.9

Every entry's value here was drawn from ChEMBL document CHEMBL4316610.
